B1: DVL3 (parent)
chain: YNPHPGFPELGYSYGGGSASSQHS

# Variants of: B1
# assay details: protein stability index of a GFP-peptide fusion (GPS, HEK-293T) (PSI 1-6); higher = more stable;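 further: lentivirally expressed fusions sorted by FACS into six bins by GFP to DsRed ratio, PSI derived from sequencing read proportions per bin multiplied by bin number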
# test conditions: c terminus: a fixed tail appended
Recorded measurements of protein stability index, one per entry
Just the number, please, no unit attached.

1. G16V    1.89
2. Y14M    2.86
3. G6I    2.38
4. G11R    3.24
5. L10M    2.04

Request: // query protein stability index value for entry L10T
Result: 2.98

Request: // query protein stability index value for entry S13Q
Result: 3

Request: // query protein stability index value for entry Y1R
Result: 3.52

Request: // query protein stability index value for entry Q22V
Result: 2.33

Request: // query protein stability index value for entry G11L
Result: 2.04

Request: // query protein stability index value for entry G6F
Result: 2.42

Request: // query protein stability index value for entry H4V
Result: 2.75

Request: // query protein stability index value for entry N2A
Result: 1.96

Request: // query protein stability index value for entry G15V
Result: 2.22
